Hey, just so you know, these numbers are from patent US20230017045A1.

System: test plant species
Assay protocol: Post-emergent herbicidal activity test (greenhouse, foliar spray, visual growth reduction)
Format: in vivo
Condition label: post-emergence, 336 h, KCHSC: kochia (Bassia scoparia), 140 g ai/ha, 14 days after application, read-out: Visual Growth Reduction (%) 14 Days After Application, KCHSC
pest or weed control at 140 g/ha overview
Measurement type: pest or weed control at 140 g/ha

>  <Chemical string>
N#Cc1cc(C(F)(F)F)cc(Cl)c1-c1ccc(Cl)c(C(=O)O)n1

>  <Obs value>
95 to 100%

$$$$
>  <Chemical string>
COC(=O)c1nc(-c2ccc(C(F)(F)F)cc2F)c(F)cc1Cl

>  <Obs value>
60 to 74%

$$$$
>  <Chemical string>
COC(=O)c1nc(-c2cccc3c2OC(F)(F)O3)ccc1Cl

>  <Obs value>
0 to 29%

$$$$
>  <Chemical string>
COC(=O)c1nc(-c2ccc(OC(F)F)cc2)c(F)cc1Cl

>  <Obs value>
30 to 44%

$$$$
>  <Chemical string>
COC(=O)c1nc(-c2ccc(C(F)(F)F)cc2OC)ncc1Cl

>  <Obs value>
0 to 29%

$$$$

###

System: test plant species
Assay protocol: Post-emergent herbicidal activity test (greenhouse, foliar spray, visual growth reduction)
Type: in vivo
Condition label: post-emergence, 336 h, johnsongrass (Sorghum vulgare), 14 Days After Application, 140 g ai/ha, read-out: Visual Growth Reduction (%) SORVU
Description: Post-emergent Test: Seeds or nutlets of the desired test plant species were planted in Sun Gro Metro-Mix® 360 planting mixture, which typically has a pH of 6.0 to 6.8 and an organic matter content of about 30 percent, in plastic pots with a surface area of 64 square centimeters. In some aspects, to ensure good germination and healthy plants, a fungicide treatment and/or other chemical or physical treatment was applied. […]

>  <Chemical string>
COC(=O)c1nc(-c2ccc(C(F)(F)F)cc2Cl)ccc1OC

>  <pest or weed control at 140 g/ha>
95 to 100%

$$$$
>  <Chemical string>
COC(=O)c1nc(-c2ccc(C(F)(F)F)cc2Cl)cc(C#N)c1Cl

>  <pest or weed control at 140 g/ha>
0 to 29%

$$$$
>  <Chemical string>
COC(=O)c1nc(-c2ccc(C3CC3)cc2Cl)ccc1Cl

>  <pest or weed control at 140 g/ha>
0 to 29%

$$$$
>  <Chemical string>
COC(=O)c1nc(-c2ccc(C(F)(F)F)cc2Cl)ccc1C(F)(F)F

>  <pest or weed control at 140 g/ha>
0 to 29%

$$$$
>  <Chemical string>
COC(=O)c1nc(-c2ccc(C(F)(F)F)cc2Cl)ccc1C#N

>  <pest or weed control at 140 g/ha>
30 to 44%

$$$$
>  <Chemical string>
COC(=O)c1nc(-c2ccc(C(F)(F)F)cc2Cl)c(C#N)cc1Cl

>  <pest or weed control at 140 g/ha>
0 to 29%

$$$$
>  <Chemical string>
COC(=O)c1nc(-c2ccc(C(F)(F)F)cc2Cl)c(I)cc1Cl

>  <pest or weed control at 140 g/ha>
45 to 59%

$$$$

###

Tested on: test plant species
Assay protocol: Post-emergent herbicidal activity test (greenhouse, foliar spray, visual growth reduction)
Type: in vivo
Condition label: post-emergence, 336 h, AMARE: redroot pigweed (Amaranthus retroflexus), 140 g ai/ha, 14 days after application, read-out: Visual Growth Reduction (%) 14 Days After Application, AMARE
The following compounds are shown together with reported pest or weed control at 140 g/ha values.

>  <Chemical string>
COC(=O)c1nc(-c2ccc(C(F)(F)F)cc2Cl)ncc1Cl

>  <pest or weed control at 140 g/ha>
95 to 100%

$$$$
>  <Chemical string>
COC(=O)c1nc(-c2ccc(C(F)F)cc2Cl)ccc1Cl

>  <pest or weed control at 140 g/ha>
95 to 100%

$$$$
>  <Chemical string>
COC(=O)c1nc(-c2ncc(Cl)c(C(F)F)c2Cl)ccc1Cl

>  <pest or weed control at 140 g/ha>
60 to 74%

$$$$
>  <Chemical string>
COC(=O)c1nc(-c2ccc(OC(F)F)cc2)c(F)cc1Cl

>  <pest or weed control at 140 g/ha>
85 to 94%

$$$$
>  <Chemical string>
COC(=O)c1nc(-c2ccc(C(F)(F)F)cc2C#N)ccc1Cl

>  <pest or weed control at 140 g/ha>
85 to 94%

$$$$
